# study system: T1, Anti-CD28 Fab (SEQ ID NOs: 696, 697)
# T1 construct: In the phage ELISA the Fab was biotinylated and captured on neutravidin coated plates
# T1 sequence (VH, as listed by the source, chain 1 of 2): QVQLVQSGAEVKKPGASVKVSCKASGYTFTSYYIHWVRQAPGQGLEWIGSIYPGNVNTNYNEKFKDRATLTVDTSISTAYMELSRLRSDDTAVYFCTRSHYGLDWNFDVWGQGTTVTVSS
# T1 sequence (VL, as listed by the source, chain 2 of 2): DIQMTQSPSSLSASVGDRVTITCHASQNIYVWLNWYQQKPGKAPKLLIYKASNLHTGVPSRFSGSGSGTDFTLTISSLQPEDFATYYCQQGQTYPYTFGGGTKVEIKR
# experiment notes: phage ELISA on captured anti-CD28 Fab; competitor: CD28 antigen pre-incubated in the well
Where no end group is shown, it is not given here.
measured endpoint: Anti-CD28 Fab signal in the presence of CD28
No unit in the answer, please; the number alone is enough.

stdin: Can you share its Anti-CD28 Fab signal in the presence of CD28? I mean this binder: YCDGHSREYMVKCL (cysteine pairing not given here; also: fused to phage pIII, not shown: pIII filament protein of the bacteriophage to which the peptide is fused) [Phage-881]
stdout: 0.06

stdin: Can you share its Anti-CD28 Fab signal in the presence of CD28? I mean this binder: YCDGHLPEYFLKCL (cysteine pairing not given here; also: fused to phage pIII, not shown: pIII filament protein of the bacteriophage to which the peptide is fused) [Phage-886]
stdout: 0.11

stdin: Can you share its Anti-CD28 Fab signal in the presence of CD28? I mean this binder: YCEGHSVQYMQKCL (not shown: pIII filament protein of the bacteriophage to which the peptide is fused) [Phage-879]
stdout: 0.06

stdin: Can you share its Anti-CD28 Fab signal in the presence of CD28? I mean this binder: YCDGHLQIYMHKCL (cysteine pairing not given here; also: fused to phage pIII, not shown: pIII filament protein of the bacteriophage to which the peptide is fused) [Phage-884]
stdout: 0.1

stdin: Can you share its Anti-CD28 Fab signal in the presence of CD28? I mean this binder: YCEGHAQEYMSKCL (cysteine pairing not given here; also: fused to phage pIII, not shown: pIII filament protein of the bacteriophage to which the peptide is fused) [Phage-889]
stdout: 0.08
